Values compiled from patent US9249129B2.

target: kinases (kinome) (Homo sapiens); construct: determined in kinobeads assays with mass spectrometry detection of kinases as described previously; endogenous in cells; experiment: kinobeads assay with mass spectrometry detection of kinases (kinase selectivity profile); settings: GSK3B (CMGC), IPI00216190
Listing: IC50 of selected molecules

Consider the following illustrative entries.
C[C@H]1COCCN1c1nc(-c2ccc(NC(=O)NC3CC3)cc2)cc(-c2cc(F)ccc2S(C)(=O)=O)n1
> 10 µM
C[C@H]1COCCN1c1nc(-c2ccc(NC(=O)N[C@H]3CCC[C@@H]3O)cc2)cc(-c2cc(F)ccc2S(C)(=O)=O)n1
> 10 µM

Given the entry C[C@H]1COCCN1c1cc(-c2ccccn2)nc(-c2ccc(NC(=O)NCCO)cc2)n1 , what IC50 was observed with kinases (kinome) (Homo sapiens)?
> 10 µM

====

target: kinases (kinome) (Homo sapiens); construct: determined in kinobeads assays with mass spectrometry detection of kinases as described previously; endogenous in cells; test: kinobeads assay with mass spectrometry detection of kinases (kinase selectivity profile); conditions: STK33 (CAMK), IPI00302351
pIC50: −log10 of the molar value.
Recorded Endpoint: pIC50

C[C@H]1COCCN1c1nc(-c2ccc(NC(=O)NC3CC3)cc2)cc(-c2cc(F)ccc2S(C)(=O)=O)n1
< 5.00
C[C@H]1COCCN1c1nc(-c2ccc(NC(=O)NC3CC3)cc2)cc(-c2ccccc2S(C)(=O)=O)n1
< 5.00

# lookup: pIC50 of C[C@H]1COCCN1c1nc(-c2ccc(NC(=O)NC3CC3)cc2)cc(-c2cccnc2S(C)(=O)=O)n1
< 5.00

====

Listing: IC50 of selected molecules
biological target: kinases (kinome) (Homo sapiens); construct: determined in kinobeads assays with mass spectrometry detection of kinases as described previously; endogenous in cells; test: kinobeads assay with mass spectrometry detection of kinases (kinase selectivity profile); settings: JAK1 (TK), IPI00784013

C[C@H]1COCCN1c1cc(-c2ccccn2)nc(-c2ccc(NC(=O)NCCO)cc2)n1
> 10 µM

# lookup: IC50 of C[C@H]1COCCN1c1cc(-c2ccccc2S(C)(=O)=O)nc(-c2ccc(NC(=O)NC3CC3)cc2)n1
> 10 µM

# lookup: IC50 of C[C@H]1COCCN1c1nc(-c2ccc(NC(=O)N[C@H]3CCC[C@@H]3O)cc2)cc(-c2cc(F)ccc2S(C)(=O)=O)n1
> 10 µM

====

Listing: pIC50 of selected compounds
molecular target: kinases (kinome) (Homo sapiens, UniProt P00519); construct: determined in kinobeads assays with mass spectrometry detection of kinases as described previously; endogenous in cells; experiment: kinobeads assay with mass spectrometry detection of kinases (kinase selectivity profile); conditions: ABL (TK), IPI00221171
Sequence (P00519 whole entry): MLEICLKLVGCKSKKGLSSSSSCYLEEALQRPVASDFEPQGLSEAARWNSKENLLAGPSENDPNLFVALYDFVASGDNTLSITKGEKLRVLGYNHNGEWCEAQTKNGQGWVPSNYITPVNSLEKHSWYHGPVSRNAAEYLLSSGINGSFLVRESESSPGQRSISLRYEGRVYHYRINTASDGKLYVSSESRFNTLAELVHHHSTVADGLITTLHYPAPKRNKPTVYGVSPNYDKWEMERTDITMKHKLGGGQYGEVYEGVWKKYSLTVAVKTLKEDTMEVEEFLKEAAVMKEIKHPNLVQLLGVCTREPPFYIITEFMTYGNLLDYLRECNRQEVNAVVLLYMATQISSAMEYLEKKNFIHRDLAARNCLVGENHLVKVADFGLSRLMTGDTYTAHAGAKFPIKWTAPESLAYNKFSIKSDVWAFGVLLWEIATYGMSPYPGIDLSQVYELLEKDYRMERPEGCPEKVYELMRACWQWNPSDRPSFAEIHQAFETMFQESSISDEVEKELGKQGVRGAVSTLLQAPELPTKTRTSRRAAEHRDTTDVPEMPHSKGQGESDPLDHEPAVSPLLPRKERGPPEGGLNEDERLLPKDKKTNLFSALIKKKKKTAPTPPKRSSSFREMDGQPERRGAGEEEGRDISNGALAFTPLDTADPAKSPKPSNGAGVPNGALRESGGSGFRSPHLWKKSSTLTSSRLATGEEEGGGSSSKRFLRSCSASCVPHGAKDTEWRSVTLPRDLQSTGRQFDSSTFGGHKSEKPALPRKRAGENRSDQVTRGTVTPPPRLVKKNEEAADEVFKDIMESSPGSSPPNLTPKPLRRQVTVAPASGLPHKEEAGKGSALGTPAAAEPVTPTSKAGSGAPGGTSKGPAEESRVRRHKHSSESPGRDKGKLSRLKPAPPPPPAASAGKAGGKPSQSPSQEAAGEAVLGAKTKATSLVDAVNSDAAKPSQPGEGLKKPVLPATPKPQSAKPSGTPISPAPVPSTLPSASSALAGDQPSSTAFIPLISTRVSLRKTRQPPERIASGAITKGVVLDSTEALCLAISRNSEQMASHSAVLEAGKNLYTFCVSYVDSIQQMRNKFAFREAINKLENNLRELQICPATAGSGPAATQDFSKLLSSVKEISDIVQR
pIC50: −log10 of the molar value.

C[C@H]1COCCN1c1nc(-c2ccc(NC(=O)NC3CC3)cc2)cc(-c2cc(F)ccc2S(C)(=O)=O)n1
< 5.00
C[C@H]1COCCN1c1nc(-c2ccc(NC(=O)NC3CC3)cc2)cc(-c2ccccc2S(C)(=O)=O)n1
< 5.00

Given the entry C[C@H]1COCCN1c1nc(-c2ccc(NC(=O)N[C@H]3CCC[C@@H]3O)cc2)cc(-c2cc(F)ccc2S(C)(=O)=O)n1 , what pIC50 was observed with kinases (kinome) (Homo sapiens, UniProt P00519)?
< 5.00
